B1: Pistol ribozyme (parent)
chain: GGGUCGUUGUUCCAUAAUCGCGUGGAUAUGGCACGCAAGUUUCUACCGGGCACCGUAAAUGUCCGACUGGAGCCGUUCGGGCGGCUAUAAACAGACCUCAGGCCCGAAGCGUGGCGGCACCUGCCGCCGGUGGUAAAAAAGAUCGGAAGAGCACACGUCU

Variants of: B1
Test: aptazyme ON/OFF ratio, guanine; higher = stronger switching; co-transcriptional cleavage with and without guanine
MEASUREMENT_KIND: aptazyme ON/OFF ratio
Answer with a number only.

Some solved cases for reference:
U7A U8C G9U U10A U11A C13G; 1.08
U7G G9C U10G C13A; 1.41

Incoming: Look up aptazyme ON/OFF ratio: G9U U10A C12A C13A
Outgoing: 1.22

Incoming: Look up aptazyme ON/OFF ratio: U7G U10A C12U C13U
Outgoing: 1.25

Incoming: Look up aptazyme ON/OFF ratio: U8G G9U U10G U11C C12G C13A
Outgoing: 1.04

Incoming: Look up aptazyme ON/OFF ratio: U8G G9C U10A U11C C12A
Outgoing: 1.12

Incoming: Look up aptazyme ON/OFF ratio: U7A G9A U10C C12A C13G
Outgoing: 1.22

Incoming: Look up aptazyme ON/OFF ratio: U7C U8G G9C U10G C13A
Outgoing: 1.25

Incoming: Look up aptazyme ON/OFF ratio: U7A G9A U10A U11C C13U
Outgoing: 1.06

Incoming: Look up aptazyme ON/OFF ratio: U7G U8G U10G U11G C12G C13A
Outgoing: 1.42

Incoming: Look up aptazyme ON/OFF ratio: U7G G9U U10G C12G
Outgoing: 1.36
